Exercise: state measured inhibition for each of the compounds provided.
- system name: Inhibitor of nuclear factor kappa-B kinase subunit alpha (Homo sapiens);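 further: mean percent inhibition from GSK PKIS profiling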
- setup conditions: at 0.1 µM
Numbers only, in %.

Solved cases below.
[
  {
    "compound": "COC(=O)Nc1nc2cc(Oc3ccc(NC(=O)Nc4cccc(Br)c4)cc3)ccc2[nH]1",
    "inhibition / %": 7.56
  },
  {
    "compound": "COC(=O)c1cncc(/C=C/c2c(C)cc(O)cc2C)c1",
    "inhibition / %": 3.28
  },
  {
    "compound": "CCCN1CCCC(c2ccc(Nc3nc(Nc4cc(F)ccc4C(N)=O)c4cc[nH]c4n3)c(OC)c2)C1 (stereo not given)",
    "inhibition / %": 6.24
  },
  {
    "compound": "CN(C)CCCn1c(-c2nonc2N)nc2cnccc21",
    "inhibition / %": 5.57
  }
]

Continue with the next compound.
Quick one: inhibition for "Nc1nccc(-c2c(-c3ccc(F)cc3)nn3cc(C(F)(F)F)ccc23)n1" ?
-2.07
